Reference source for all entries: the supplement of paper PMC10065799

molecular target: Grb2 SH2 (UniProt P62993); test: SH2 binding enrichment of the phosphorylated peptide, bacterial display (enrichment ratio); higher = better substrate or ligand; peptides without Tyr show the background
Sequence (P62993 whole entry, looked up): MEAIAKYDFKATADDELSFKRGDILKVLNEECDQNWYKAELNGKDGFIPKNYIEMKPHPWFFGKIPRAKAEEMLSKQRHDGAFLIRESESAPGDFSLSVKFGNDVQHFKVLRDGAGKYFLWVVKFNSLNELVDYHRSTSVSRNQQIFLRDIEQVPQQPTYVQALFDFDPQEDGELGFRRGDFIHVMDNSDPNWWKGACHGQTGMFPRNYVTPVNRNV
observable: SH2 binding enrichment
Respond with the number and no other words.

Query: SH2 binding enrichment; subject: RFFTTYDTNGR [CLCA1_Y665_YF]
0.825

Query: SH2 binding enrichment; subject: SDYYAYSPVQE [H6PD_Y449_R453Q]
1.01

Query: SH2 binding enrichment; subject: LISVSYDDWDY [GRIN2A_Y281]
1.07

Query: SH2 binding enrichment; subject: GRVYVYHLSEQ [ITGAE_Y551_R552H]
1.01

Query: SH2 binding enrichment; subject: DDLEVYLKHPL [SACS_Y3477_L3481P]
0.604

Query: SH2 binding enrichment; subject: QRRLVYYEGGA [RYR1_Y245]
1.17

Query: SH2 binding enrichment; subject: ISMAGYSIPEL [EDAR_Y406_T403M]
0.827

* * *

biological target: FGFR1 (UniProt P11362); test: phosphorylation enrichment, bacterial display (enrichment ratio); higher = better substrate or ligand; peptides without Tyr show the background
Sequence (P11362 whole entry, looked up): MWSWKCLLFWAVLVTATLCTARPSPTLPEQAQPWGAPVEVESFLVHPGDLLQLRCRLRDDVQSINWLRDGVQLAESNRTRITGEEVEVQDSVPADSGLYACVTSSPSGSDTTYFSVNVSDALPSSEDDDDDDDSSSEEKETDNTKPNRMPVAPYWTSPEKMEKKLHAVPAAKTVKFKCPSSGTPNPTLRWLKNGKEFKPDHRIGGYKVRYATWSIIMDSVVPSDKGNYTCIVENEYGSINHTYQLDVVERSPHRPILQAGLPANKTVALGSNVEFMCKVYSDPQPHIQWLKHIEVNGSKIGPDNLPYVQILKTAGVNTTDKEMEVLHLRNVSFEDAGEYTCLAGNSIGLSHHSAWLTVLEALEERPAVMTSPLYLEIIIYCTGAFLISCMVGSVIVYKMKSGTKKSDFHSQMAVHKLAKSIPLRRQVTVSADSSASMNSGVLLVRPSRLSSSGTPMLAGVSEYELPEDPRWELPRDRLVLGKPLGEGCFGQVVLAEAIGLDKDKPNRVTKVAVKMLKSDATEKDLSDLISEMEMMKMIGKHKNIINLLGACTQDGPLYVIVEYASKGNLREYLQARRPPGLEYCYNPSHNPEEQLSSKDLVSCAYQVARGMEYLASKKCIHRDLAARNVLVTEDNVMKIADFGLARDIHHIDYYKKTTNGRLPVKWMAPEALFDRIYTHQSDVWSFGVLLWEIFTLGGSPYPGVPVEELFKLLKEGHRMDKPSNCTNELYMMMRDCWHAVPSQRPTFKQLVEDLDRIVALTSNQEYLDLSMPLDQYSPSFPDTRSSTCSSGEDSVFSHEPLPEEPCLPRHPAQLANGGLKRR
Please enter rule met where phosphorylation enrichment is greater than or equal to 0.5, and rule not met where it is lower.

Form field: phosphorylation enrichment at least 0.5? Entry: NVADHYRVFKP [ATP6V0D2_Y271_G272R_YF]
rule not met

Form field: phosphorylation enrichment at least 0.5? Entry: RHLQEYQDLLN [GFAP_Y349]
rule not met

Form field: phosphorylation enrichment at least 0.5? Entry: PVQAAYKKVVA [HBB_Y131_Q132K]
rule met

Form field: phosphorylation enrichment at least 0.5? Entry: VNFGAYINDFK [GLB1_Y488_YF]
rule not met

Form field: phosphorylation enrichment at least 0.5? Entry: EVGRVYLFLQP [ITGA2B_Y360]
rule not met

Form field: phosphorylation enrichment at least 0.5? Entry: EADRKYEEVAR [TPM3_Y163]
rule met

Form field: phosphorylation enrichment at least 0.5? Entry: TGQEEYSAMRD [KRAS_Y64_A59T]
rule met

Form field: phosphorylation enrichment at least 0.5? Entry: QEMMEYRHQIQ [DES_Y324]
rule met

Form field: phosphorylation enrichment at least 0.5? Entry: SDQPDYDSVAS [GIT2_Y392_N387S]
rule met

Form field: phosphorylation enrichment at least 0.5? Entry: RLGNQYVNVMN [SLC3A1_Y461]
rule met

Form field: phosphorylation enrichment at least 0.5? Entry: SLIERYEPSET [PLCD1_Y258]
rule met

Form field: phosphorylation enrichment at least 0.5? Entry: QFPDVYAREEV [CRX_Y67_YF]
rule met

Form field: phosphorylation enrichment at least 0.5? Entry: ALWFIYSHTRS [ENG_Y614_YF]
rule not met

Form field: phosphorylation enrichment at least 0.5? Entry: KWKQKYEESQS [MYH6_Y1462_E1457K]
rule not met

Form field: phosphorylation enrichment at least 0.5? Entry: RGESFYQDTMN [RARS_Y338_R341T]
rule met

Form field: phosphorylation enrichment at least 0.5? Entry: FFWDGYMPRQF [GSS_Y270_R267W_YF]
rule not met

Form field: phosphorylation enrichment at least 0.5? Entry: KPLMPSMRYSR [SMARCE1_Y73_Y73S]
rule not met

Form field: phosphorylation enrichment at least 0.5? Entry: CLEKEYFDQHF [NPC1_Y394_R389C]
rule met

Form field: phosphorylation enrichment at least 0.5? Entry: KLFIEYPTGSG [IRF2BPL_Y423]
rule not met

Form field: phosphorylation enrichment at least 0.5? Entry: DGNIDYAEFAK [MCFD2_Y138_Y135N]
rule met

Form field: phosphorylation enrichment at least 0.5? Entry: PTTKTYFLHFD [HBA1_Y43_P45L]
rule met

Form field: phosphorylation enrichment at least 0.5? Entry: DGTGHYLCNAC [GATA5_Y208]
rule not met

Form field: phosphorylation enrichment at least 0.5? Entry: LRWREYQRQDY [PRKRIP1_Y90_R87W]
rule met

Form field: phosphorylation enrichment at least 0.5? Entry: RNGNRYFKGIV [DCX_Y64_D62N]
rule met

Form field: phosphorylation enrichment at least 0.5? Entry: NKFTTYLPRLP [C9orf24_Y126_YF]
rule not met

Form field: phosphorylation enrichment at least 0.5? Entry: SGPRRYTMAAL [TTR_Y125_I127M]
rule not met

Form field: phosphorylation enrichment at least 0.5? Entry: RHPLDYLRQFP [NARS2_Y138_E137D_YF]
rule not met

Form field: phosphorylation enrichment at least 0.5? Entry: PFFASYPPSPD [GDAP2_Y491_T489A_YF]
rule met

* * *

target: SHP2-C SH2; assay: SH2 binding enrichment of the phosphorylated peptide, bacterial display (enrichment ratio); higher = better substrate or ligand; peptides without Tyr show the background
observable: SH2 binding enrichment
Respond with the number and no other words.

Lookup: SH2 binding enrichment / SHP2-C SH2 / WHHIFYNELRV [ACTG1_Y91_T89I]
0.638

Lookup: SH2 binding enrichment / SHP2-C SH2 / ALWFIYSHTRS [ENG_Y614_YF]
0.81

Lookup: SH2 binding enrichment / SHP2-C SH2 / DERQPYAHMNG [IGF1R_Y1346]
0.767

Lookup: SH2 binding enrichment / SHP2-C SH2 / MVTSGYKAKTI [EFR3A_Y447]
0.744

Lookup: SH2 binding enrichment / SHP2-C SH2 / HNLDYYKMTTN [FGFR3_Y648_K650M]
1

Lookup: SH2 binding enrichment / SHP2-C SH2 / DWLRRYLENGK [HLA-A_Y195_E190D]
0.366

Lookup: SH2 binding enrichment / SHP2-C SH2 / GDEVEYMLVSF [GCLC_Y53]
0.701

Lookup: SH2 binding enrichment / SHP2-C SH2 / EPSVPYRGMVF [GLI3_Y104_T107M]
0.567

Lookup: SH2 binding enrichment / SHP2-C SH2 / PLQKTYNHNVL [SLC4A1_Y553_Y555H]
0.607

Lookup: SH2 binding enrichment / SHP2-C SH2 / ADDSYYTVRSA [ZAP70_Y493_A495V]
0.753

Lookup: SH2 binding enrichment / SHP2-C SH2 / NRLTDYFELLL [BBS10_Y536_P539L_YF]
1.29

Lookup: SH2 binding enrichment / SHP2-C SH2 / NFAKMYCNPDA [KNL1_Y489_YF]
0.633

Lookup: SH2 binding enrichment / SHP2-C SH2 / DNEALYDTCFR [TUBB2B_Y208_I210T]
0.456

Lookup: SH2 binding enrichment / SHP2-C SH2 / QMVGMYASFYM [AVPR2_Y124_S127F]
0.842

Lookup: SH2 binding enrichment / SHP2-C SH2 / SLIDGYYRLTE [JAK2_Y372_A377E]
1.21

Lookup: SH2 binding enrichment / SHP2-C SH2 / AALVQYYMEHH [PTPN11_Y80_E76A]
1.16

Lookup: SH2 binding enrichment / SHP2-C SH2 / YGAHNYHPLPV [OAT_Y55]
0.827

Lookup: SH2 binding enrichment / SHP2-C SH2 / LRFKQYLRNPP [SHC1_Y315]
0.591

Lookup: SH2 binding enrichment / SHP2-C SH2 / TFRPPYFHRNC [HGD_Y333_YF]
1.41

Lookup: SH2 binding enrichment / SHP2-C SH2 / PGPQSYPTVTG [PAX5_Y299_I301T]
0.824

Lookup: SH2 binding enrichment / SHP2-C SH2 / GDEAIYATVAG [NRTKtide_2018]
0.812

Lookup: SH2 binding enrichment / SHP2-C SH2 / DMDATYRPMFS [JUP_Y701_YF]
0.886

Lookup: SH2 binding enrichment / SHP2-C SH2 / FSALDYKIFYY [WDPCP_Y210_L205F]
1.17

Lookup: SH2 binding enrichment / SHP2-C SH2 / IITVHYVLEES [RYR2_Y4559_A4556T]
1.56

Lookup: SH2 binding enrichment / SHP2-C SH2 / NFDRIYIYHLR [MYOF_Y1137_V1136I]
6.21

Lookup: SH2 binding enrichment / SHP2-C SH2 / KKRRSYGNSSD [SELENOK_Y52]
0.525

Lookup: SH2 binding enrichment / SHP2-C SH2 / TLLSAYQIPRT [GAB2_Y324_P320L]
0.73

Lookup: SH2 binding enrichment / SHP2-C SH2 / WRPFGYPCRRR [BCS1L_Y181_R183C]
0.488

Lookup: SH2 binding enrichment / SHP2-C SH2 / GCCSWYRGWAP [TIMP3_Y195_Y191C]
1.14

* * *

biological target: Fyn (UniProt P06241); experiment: phosphorylation enrichment, bacterial display (enrichment ratio); higher = better substrate or ligand; peptides without Tyr show the background
Sequence (P06241 whole entry, looked up): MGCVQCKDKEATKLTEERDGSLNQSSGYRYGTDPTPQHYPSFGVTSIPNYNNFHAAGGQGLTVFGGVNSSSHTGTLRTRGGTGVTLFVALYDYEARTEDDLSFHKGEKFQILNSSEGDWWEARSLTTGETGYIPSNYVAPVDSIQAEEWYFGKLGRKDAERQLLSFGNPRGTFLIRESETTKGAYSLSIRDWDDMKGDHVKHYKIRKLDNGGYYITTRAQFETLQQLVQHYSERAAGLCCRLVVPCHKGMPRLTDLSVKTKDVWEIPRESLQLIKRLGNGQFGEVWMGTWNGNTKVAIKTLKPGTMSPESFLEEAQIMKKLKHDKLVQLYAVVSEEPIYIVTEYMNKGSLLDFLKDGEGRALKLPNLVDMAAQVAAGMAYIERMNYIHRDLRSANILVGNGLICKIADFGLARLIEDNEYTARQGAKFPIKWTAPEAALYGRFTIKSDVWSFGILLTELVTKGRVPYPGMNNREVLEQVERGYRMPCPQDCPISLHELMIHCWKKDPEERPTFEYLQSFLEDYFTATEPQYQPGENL
For each entry below, report its phosphorylation enrichment value.

Query: phosphorylation enrichment; subject: FSGKAYADEER [CRIM1_Y826]
0.463

Query: phosphorylation enrichment; subject: KAIMTYVFSFF [ACTN4_Y260_S262F_YF]
0.464

Query: phosphorylation enrichment; subject: GCVSKYSGVFS [TUBGCP6_Y1624]
0.357

Query: phosphorylation enrichment; subject: IVEYAYNDKAI [PUM3_Y259]
0.505

Query: phosphorylation enrichment; subject: LSPPVYLTNEW [NRK_Y885_I880L]
0.587

Query: phosphorylation enrichment; subject: PRSRSYSSTSI [REPS2_Y462]
1.06

Query: phosphorylation enrichment; subject: IVAREYYSKAD [CAMK2B_Y107_E110K]
0.423

Query: phosphorylation enrichment; subject: GFRPVYSEDEQ [CHST6_Y362_YF]
0.592

Query: phosphorylation enrichment; subject: FSAPNCCYRCG [PPP2CA_Y265_Y265C]
0.518

Query: phosphorylation enrichment; subject: ATARPYSPFII [LRP5_Y1528_R1529S_YF]
0.504

Query: phosphorylation enrichment; subject: RYVSRYIYNRE [HLA-DQB1_Y62_T60S]
0.829

Query: phosphorylation enrichment; subject: WGTPEYDSVVA [MAP1A_Y1883_A1881P]
0.566

Query: phosphorylation enrichment; subject: GYGGGYGGVLT [KRT19_Y65_A60G]
0.42

Query: phosphorylation enrichment; subject: RPSRWYQFPVA [ANOS1_Y259_R262P]
0.496

Query: phosphorylation enrichment; subject: MSNFAYVKREV [SCN1A_Y1694]
0.418

Query: phosphorylation enrichment; subject: YPQARYHWLVL [APTX_Y214_K211Q]
0.449

Query: phosphorylation enrichment; subject: RFLRGYRQFAF [HLA-A_Y137_D140Y_YF]
0.583

Query: phosphorylation enrichment; subject: GRVYVYHLSEQ [ITGAE_Y551_R552H]
0.835

Query: phosphorylation enrichment; subject: KLFIEYPTGSG [IRF2BPL_Y423]
0.444

Query: phosphorylation enrichment; subject: RGKLFYQEVPA [METTL11B_Y76_A72G]
0.544

Query: phosphorylation enrichment; subject: DDSNPYINVKL [MTHFD1_Y52_L51P]
0.645

Query: phosphorylation enrichment; subject: RASGIYYVPKG [APBB1IP_Y340]
15.1

Query: phosphorylation enrichment; subject: RVNSAYQEKVS [ACAN_Y100_D102E]
0.378

Query: phosphorylation enrichment; subject: ARGMEYLAEQK [MST1R_Y1198_G1195S]
0.491

Query: phosphorylation enrichment; subject: GVKLTYGDAQS [SLC28A1_Y404_N409S]
0.426

Query: phosphorylation enrichment; subject: PVDGEYFTLQI [TP53_Y327_L323V]
4.09

Query: phosphorylation enrichment; subject: DRKRQYELLKL [KIF4B_Y684]
0.392

Query: phosphorylation enrichment; subject: IVAREYYSDAD [CAMK2A_Y106_E109D]
0.473
